# tgt: UniProtKB P29990
# Sequence (P29990 2492-3391 limits assumed): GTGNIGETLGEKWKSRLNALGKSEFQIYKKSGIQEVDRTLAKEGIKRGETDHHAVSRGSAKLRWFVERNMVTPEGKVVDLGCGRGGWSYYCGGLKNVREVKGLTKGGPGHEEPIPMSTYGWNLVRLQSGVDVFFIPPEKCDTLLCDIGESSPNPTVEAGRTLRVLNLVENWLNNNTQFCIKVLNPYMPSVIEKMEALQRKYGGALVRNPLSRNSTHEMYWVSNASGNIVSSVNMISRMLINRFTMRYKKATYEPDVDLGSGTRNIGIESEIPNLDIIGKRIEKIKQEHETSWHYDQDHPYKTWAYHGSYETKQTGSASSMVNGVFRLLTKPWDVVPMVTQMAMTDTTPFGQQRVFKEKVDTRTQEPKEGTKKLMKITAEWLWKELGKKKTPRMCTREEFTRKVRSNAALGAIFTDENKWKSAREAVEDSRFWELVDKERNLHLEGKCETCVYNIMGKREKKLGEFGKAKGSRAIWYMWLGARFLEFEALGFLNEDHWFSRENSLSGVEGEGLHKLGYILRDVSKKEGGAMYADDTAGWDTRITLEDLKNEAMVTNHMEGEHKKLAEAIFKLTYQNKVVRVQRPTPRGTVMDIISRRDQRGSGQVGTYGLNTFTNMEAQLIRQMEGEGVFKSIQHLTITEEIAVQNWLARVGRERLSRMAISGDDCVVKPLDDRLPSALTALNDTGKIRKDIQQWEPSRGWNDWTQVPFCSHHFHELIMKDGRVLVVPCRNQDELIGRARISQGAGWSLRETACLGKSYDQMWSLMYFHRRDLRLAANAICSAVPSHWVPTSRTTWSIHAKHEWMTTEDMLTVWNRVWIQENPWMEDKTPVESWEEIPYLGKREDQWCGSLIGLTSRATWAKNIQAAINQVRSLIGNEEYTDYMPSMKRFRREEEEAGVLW
# testSummary: Dengue-2 NS5 methyltransferase inhibitors, primary screen, biochemical, confirmation dose response (AID 588689)
# Assay type: functional
Activity calls are given as the source filed them.
reportedProperty: IC50

q: Given COc1ccc2c(c1OC)C(=O)OC2c1c(O)n(Cc2ccc(F)cc2)c(=O)[nH]c1=O (configuration not stated) , state its recorded IC50.
a: 69.7 µM (active)

q: Given "COC(=O)c1c(C)oc2c1cc(NS(=O)(=O)c1ccc(C(=O)O)cc1)c1ccccc12" , state its recorded IC50.
a: 69 µM (active)

q: Given "CCCCOc1ccc(Nc2cc(Cl)ccc2C(=O)O)cn1" , state its recorded IC50.
a: 59.8 µM (active)

q: Given "CC1(C)CC(=O)C(C(C2=C(O)CC(C)(C)CC2=O)c2ccc(O)c([N+](=O)[O-])c2)=C(O)C1" , state its recorded IC50.
a: 9.49 µM (active)

q: Given "O=c1oc2ccccc2c(O)c1[C@H]1c2ccc(O)cc2Oc2c1c(=O)oc1ccccc21" , state its recorded IC50.
a: 80.7 µM (active)

q: Given "O=C(COc1ccccc1/C=C\c1nc(O)nc(O)c1[N+](=O)[O-])Nc1ccccc1" , state its recorded IC50.
a: 39.9 µM (active)

Further cases:
q: Given "O=C1C(Br)=C(N2CCN(CCOCCO)CC2)C(=O)c2c(O)ccc(O)c21" , state its recorded IC50.
a: 5.11 µM (active)

q: Given "COc1cc(/C=C(/C#N)C(=O)Nc2ccccc2)c(Br)cc1OCc1ccc(C(=O)O)cc1" , state its recorded IC50.
a: 66.6 µM (active)

q: Given "O=C(O)CN1C(=O)/C(=C\c2ccccc2OCc2ccc(Cl)cc2)SC1=S" , state its recorded IC50.
a: 43.3 µM (active)

q: Given Cc1ccc(C(C2=C(O)CC(C)(C)CC2=O)C2C(=O)CC(C)(C)CC2=O)s1 (configuration not stated) , state its recorded IC50.
a: 29.4 µM (active)

q: Given "Nc1c(C(=O)O)sc2nc(-c3ccccc3)cc(-c3ccc(Cl)cc3)c12" , state its recorded IC50.
a: 70.8 µM (active)

q: Given "Cc1cccc(NC(=O)CSc2nnc(-c3ccco3)c(-c3ccco3)n2)c1C" , state its recorded IC50.
a: 96.3 µM (active)

* * *

# tgt: Peroxisome proliferator-activated receptor gamma/Nuclear receptor coactivator 1 (Homo sapiens)
# Sequence (P37231 whole entry): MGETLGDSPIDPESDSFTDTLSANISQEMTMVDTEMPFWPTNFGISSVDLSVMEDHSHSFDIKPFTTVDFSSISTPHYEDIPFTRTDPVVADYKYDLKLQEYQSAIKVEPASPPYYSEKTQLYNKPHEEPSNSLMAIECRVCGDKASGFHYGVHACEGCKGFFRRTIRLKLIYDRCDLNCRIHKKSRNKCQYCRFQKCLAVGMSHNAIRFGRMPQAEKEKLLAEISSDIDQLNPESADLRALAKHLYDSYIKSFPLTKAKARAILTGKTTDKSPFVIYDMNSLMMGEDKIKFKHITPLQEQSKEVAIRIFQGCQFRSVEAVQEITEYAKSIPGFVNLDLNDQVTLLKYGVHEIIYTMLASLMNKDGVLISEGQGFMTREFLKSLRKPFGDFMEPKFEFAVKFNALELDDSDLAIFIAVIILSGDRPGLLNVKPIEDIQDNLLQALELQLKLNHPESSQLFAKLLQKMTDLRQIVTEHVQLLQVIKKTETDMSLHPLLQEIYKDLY
# Sequence (Q15788 whole entry, further chain): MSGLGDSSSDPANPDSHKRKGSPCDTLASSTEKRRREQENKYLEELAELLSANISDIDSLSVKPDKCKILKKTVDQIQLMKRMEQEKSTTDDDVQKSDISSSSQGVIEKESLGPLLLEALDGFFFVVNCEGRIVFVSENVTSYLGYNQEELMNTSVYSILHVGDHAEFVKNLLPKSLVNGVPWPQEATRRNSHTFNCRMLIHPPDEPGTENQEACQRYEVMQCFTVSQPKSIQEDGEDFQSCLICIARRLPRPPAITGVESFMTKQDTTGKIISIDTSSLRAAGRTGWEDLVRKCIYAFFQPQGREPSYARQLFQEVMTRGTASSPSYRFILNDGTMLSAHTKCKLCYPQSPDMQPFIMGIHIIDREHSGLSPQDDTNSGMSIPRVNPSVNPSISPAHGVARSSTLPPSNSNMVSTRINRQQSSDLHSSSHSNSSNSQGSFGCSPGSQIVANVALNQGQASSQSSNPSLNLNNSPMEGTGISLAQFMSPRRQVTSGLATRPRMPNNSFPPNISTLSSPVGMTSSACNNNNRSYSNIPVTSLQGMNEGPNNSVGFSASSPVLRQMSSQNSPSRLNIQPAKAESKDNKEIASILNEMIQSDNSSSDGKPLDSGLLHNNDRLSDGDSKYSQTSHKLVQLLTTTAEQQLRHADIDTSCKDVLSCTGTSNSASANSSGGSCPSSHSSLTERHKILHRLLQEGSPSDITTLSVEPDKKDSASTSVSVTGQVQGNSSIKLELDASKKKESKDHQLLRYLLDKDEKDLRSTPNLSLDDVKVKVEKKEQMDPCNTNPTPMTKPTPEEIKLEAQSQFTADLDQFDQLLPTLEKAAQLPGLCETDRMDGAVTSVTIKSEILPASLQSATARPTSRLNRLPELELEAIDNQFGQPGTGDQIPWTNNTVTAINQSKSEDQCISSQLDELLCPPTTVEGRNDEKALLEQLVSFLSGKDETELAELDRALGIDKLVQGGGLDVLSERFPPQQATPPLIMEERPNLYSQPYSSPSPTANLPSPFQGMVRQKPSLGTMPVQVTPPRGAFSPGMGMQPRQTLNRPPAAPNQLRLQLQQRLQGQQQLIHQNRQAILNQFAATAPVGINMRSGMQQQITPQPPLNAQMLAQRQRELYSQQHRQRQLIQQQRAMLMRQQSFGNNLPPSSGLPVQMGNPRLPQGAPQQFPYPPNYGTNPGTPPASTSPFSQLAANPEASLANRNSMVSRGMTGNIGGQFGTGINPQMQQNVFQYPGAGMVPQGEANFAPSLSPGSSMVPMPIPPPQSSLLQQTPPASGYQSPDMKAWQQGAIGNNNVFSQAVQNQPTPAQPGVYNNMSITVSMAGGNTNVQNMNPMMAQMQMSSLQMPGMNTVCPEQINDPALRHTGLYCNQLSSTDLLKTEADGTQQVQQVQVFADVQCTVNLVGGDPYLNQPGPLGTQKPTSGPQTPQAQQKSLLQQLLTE
# testSummary: TR-FRET dose response biochemical High Throughput Screening assay for agonists of the steroid receptor coactivator 1 (SRC-1) recruitment by the peroxisome proliferator-activated receptor gamma (PPAR gamma): non-selective agonists. [Related pubchem assays (depositor defined):AID1300, AID1808, AID504735, AID631]
# Format: protein assay
Activity calls are given as the source filed them.
Select the correct class. Options are active, inactive and nothing else.

Illustrative cases are given below, each with its answer.
q: What was the test verdict on "Cc1ccc(S(=O)(=O)NCC(=O)OCC(=O)c2ccc(Br)s2)cc1" ?
a: inactive

q: What was the test verdict on COc1ccc(C2C(C(=O)c3cccs3)=C(O)C(=O)N2c2nncs2)cc1 (centres undefined) ?
a: inactive

q: What was the test verdict on COc1cccc(C2C=C(c3ccc(Br)s3)Nc3ncnn32)c1OC (centres undefined) ?
a: active

With those in mind, consider the next compound.
q: What was the test verdict on CN=C(S)N1N=C(c2ccccc2)CC1c1ccc(Br)cc1 (centres undefined) ?
a: inactive

* * *

# tgt: Protein skinhead-1 (Caenorhabditis elegans, UniProt P34707)
# Sequence (P34707 whole entry): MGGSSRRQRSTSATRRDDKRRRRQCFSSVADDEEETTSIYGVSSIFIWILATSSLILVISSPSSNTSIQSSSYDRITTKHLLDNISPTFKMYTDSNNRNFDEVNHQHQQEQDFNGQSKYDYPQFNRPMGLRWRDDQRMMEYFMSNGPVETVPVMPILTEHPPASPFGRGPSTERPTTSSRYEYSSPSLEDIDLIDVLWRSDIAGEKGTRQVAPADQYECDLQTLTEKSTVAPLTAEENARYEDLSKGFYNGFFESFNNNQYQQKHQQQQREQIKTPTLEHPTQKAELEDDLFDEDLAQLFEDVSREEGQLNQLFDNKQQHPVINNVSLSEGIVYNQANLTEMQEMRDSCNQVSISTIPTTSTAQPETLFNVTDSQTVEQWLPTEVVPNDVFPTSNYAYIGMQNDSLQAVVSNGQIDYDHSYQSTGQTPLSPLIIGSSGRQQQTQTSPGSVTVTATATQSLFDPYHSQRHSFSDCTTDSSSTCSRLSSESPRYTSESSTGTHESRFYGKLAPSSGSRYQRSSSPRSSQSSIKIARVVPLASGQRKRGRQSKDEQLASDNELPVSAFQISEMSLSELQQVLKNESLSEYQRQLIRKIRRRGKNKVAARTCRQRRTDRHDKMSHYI
# Format: functional
Calls of active or inactive are those of the source.
reportedProperty: IC50

Guide cases for IC50, answers given:
q: Given "Cc1ccc(-c2[nH]ncc2/C=C(\C#N)C(=O)NC2CCCCC2)cc1" , state its recorded IC50.
a: > 100 µM (inactive)

q: Given "Cc1ccccc1-c1nnc(-c2ccccc2C)o1" , state its recorded IC50.
a: > 100 µM (inactive)

q: Given Cc1cc(C)n(CC(O)Cn2c(C)c(C)c3ccccc32)n1 (stereo not given) , state its recorded IC50.
a: > 100 µM (inactive)

Further cases:
q: Given "O=C1C(Br)=C(N2CCN(CCOCCO)CC2)C(=O)c2c(O)ccc(O)c21" , state its recorded IC50.
a: 79.6 µM (inactive)

q: Given "c1ccc(CCNc2nnnn2-c2ccccc2)cc1" , state its recorded IC50.
a: > 100 µM (inactive)

* * *

Form field: AC50 (one value per entry).
# tgt: Heat shock protein HSP 90-alpha (Homo sapiens)
# Assay type: functional, organism-based
Active and inactive are the calls of the source.

Guide cases for AC50, answers given:
q: Given "COc1ccc2c(c1)OC[C@H]1[C@H]2N2C(=O)c3cc(Cl)ccc3NC(=O)[C@@]2(C)[C@H]1c1ccccc1" , state its recorded AC50.
a: 0.976 µM (active)

q: Given "CCOc1cc(/C=C\[N+](=O)[O-])ccc1OCC(=O)Nc1ccccc1C" , state its recorded AC50.
a: 3.66 µM (active)

q: Given "Cc1ccccc1CS(=O)(=O)c1nnc([C@H](Cc2ccccc2)NC(=O)OC(C)(C)C)o1" , state its recorded AC50.
a: 24.1 µM (active)

q: Given "CCOC(=O)c1cc2cc(OCc3ccccc3)ccc2nc1C" , state its recorded AC50.
a: 3.93 µM (active)

Turning to the following compound.
q: Given "SC1=Nc2ccccc2C1" , state its recorded AC50.
a: 3.88 µM (active)

* * *

# tgt: DNA repair protein RAD52 homolog (Homo sapiens, UniProt P43351)
# Sequence (P43351 whole entry): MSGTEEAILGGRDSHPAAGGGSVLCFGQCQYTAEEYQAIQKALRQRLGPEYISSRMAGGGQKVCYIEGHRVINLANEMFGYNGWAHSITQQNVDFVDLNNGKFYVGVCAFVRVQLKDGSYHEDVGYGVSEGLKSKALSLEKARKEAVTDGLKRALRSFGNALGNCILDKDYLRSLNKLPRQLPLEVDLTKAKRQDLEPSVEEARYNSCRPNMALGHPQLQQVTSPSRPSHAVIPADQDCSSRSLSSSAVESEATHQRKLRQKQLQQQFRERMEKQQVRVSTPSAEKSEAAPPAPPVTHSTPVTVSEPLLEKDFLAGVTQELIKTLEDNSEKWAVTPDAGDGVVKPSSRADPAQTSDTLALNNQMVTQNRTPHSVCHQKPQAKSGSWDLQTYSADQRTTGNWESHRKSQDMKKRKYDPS
# Type: functional, biochemical
Activity calls are given as the source filed them.
Form field: AC50 (one value per entry).

q: Given "COc1cccc2sc(N(CCCN(C)C)C(=O)c3ccc(S(=O)(=O)N4CCc5ccccc5C4)cc3)nc12" , state its recorded AC50.
a: 23.1 µM (active)

q: Given "COc1ccc(Cl)c2sc(N(CCN(C)C)C(=O)c3ccc4c(c3)OCCO4)nc12" , state its recorded AC50.
a: 9.01 µM (active)

q: Given CCOC(=O)c1c(C)n(CC(O)CN(C)C)c2cc(Br)c(OC)cc12 (stereo unspecified) , state its recorded AC50.
a: 10.1 µM (active)

q: Given "CN(C)CCCNc1nc2cc(-c3cnn(Cc4ccccc4)c3)sc2c(=O)n1C" , state its recorded AC50.
a: 19.8 µM (active)

q: Given "COc1cccc(/C=C2/Sc3ccc(C(=O)NCCCN4CCCC4)cc3NC2=O)c1" , state its recorded AC50.
a: 4.47 µM (active)

q: Given "COc1cccc(/C=C2/Sc3ccc(C(=O)NCCN4CCCC4)cc3NC2=O)c1" , state its recorded AC50.
a: 4.28 µM (active)

* * *

# tgt: Corticotropin-releasing factor receptor 2/Corticotropin-releasing factor-binding protein (Homo sapiens, UniProt P24387+Q13324)
# Sequence (Q13324 whole entry): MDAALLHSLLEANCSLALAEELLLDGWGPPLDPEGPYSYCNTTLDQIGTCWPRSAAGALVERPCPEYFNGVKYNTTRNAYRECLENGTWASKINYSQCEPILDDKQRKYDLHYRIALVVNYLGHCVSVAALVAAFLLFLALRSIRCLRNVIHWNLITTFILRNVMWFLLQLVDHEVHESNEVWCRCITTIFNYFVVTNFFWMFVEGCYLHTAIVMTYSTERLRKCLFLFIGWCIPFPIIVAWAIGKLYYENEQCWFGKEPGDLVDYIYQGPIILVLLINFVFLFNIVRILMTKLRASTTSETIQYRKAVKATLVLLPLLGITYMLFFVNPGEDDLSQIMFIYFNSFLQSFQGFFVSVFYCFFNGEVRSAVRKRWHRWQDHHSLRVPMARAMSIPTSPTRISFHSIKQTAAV
# Sequence (P24387 whole entry): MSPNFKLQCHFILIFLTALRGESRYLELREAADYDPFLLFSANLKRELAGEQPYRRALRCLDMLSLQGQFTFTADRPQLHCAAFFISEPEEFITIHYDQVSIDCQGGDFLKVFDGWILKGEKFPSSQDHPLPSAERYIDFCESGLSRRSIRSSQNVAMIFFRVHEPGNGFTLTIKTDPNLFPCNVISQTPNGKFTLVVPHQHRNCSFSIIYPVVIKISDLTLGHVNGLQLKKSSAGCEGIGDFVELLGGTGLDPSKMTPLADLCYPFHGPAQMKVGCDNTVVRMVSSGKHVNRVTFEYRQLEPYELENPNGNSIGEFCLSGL
# testSummary: activators of CRF receptor 2 with binding protein – uHTS hits, confirmation (AID 602473)
# Assay type: functional
# conditionSet: read-out: EC50_Mean
The source made the active and inactive calls.
Select the correct class. Options are active, inactive and nothing else.

Illustrative cases are given below, each with its answer.
q: What was the test verdict on "COc1ccc(CN2CCN(C(=O)c3cccs3)CC2)c(OC)c1OC" ?
a: inactive

q: What was the test verdict on "COc1ccc(NC(=O)NCCCN2CCc3ccccc3C2)cc1" ?
a: inactive

q: What was the test verdict on "Cn1nc([N+](=O)[O-])nc1Oc1ccc(C(C)(C)C)cc1" ?
a: inactive

q: What was the test verdict on "COC(=O)Cn1cc(/C=C2\C(=O)NC(=O)N(c3ccccc3)C2=O)c2ccccc21" ?
a: active

q: What was the test verdict on "Cc1nn(C)c(C)c1NC(=O)c1cc2nc(-c3ccco3)cc(C(F)(F)F)n2n1" ?
a: inactive

Further cases:
q: What was the test verdict on "Cc1ccc(NC(=O)COC(=O)CN2C(=O)NC3(CCCC3)C2=O)cc1S(=O)(=O)N(C)C" ?
a: inactive

q: What was the test verdict on "N#C/C(=N\Nc1cccc(Cl)c1)C(=O)c1ccccc1" ?
a: inactive

q: What was the test verdict on "CCc1ccc(NC(=O)Cn2nc(C(=O)O)c3ccccc3c2=O)cc1" ?
a: inactive

q: What was the test verdict on "Clc1ccc(-c2csc(N3CCOCC3)n2)cc1" ?
a: inactive

q: What was the test verdict on Cc1cc2c(N=NC(=O)C3CC3c3ccccc3)c(O)[nH]c2cc1Br (stereo not drawn) ?
a: inactive

Origin of measurements: ChEMBL document CHEMBL1201862
